The compounds listed here are annotated with their GI50.
Test system: LOX IMVI
Protocol Notes: NCI tumour cell line growth inhibition, 48 h
The source made the active and inactive calls. No stated cut-off is given here; in the data, active = GI50 up to about 1.1 µM and inactive = higher.
Measured Attribute: GI50

- COC(=O)C(/C(=N/N)C(=O)Nc1ccc(C)c(C)c1)c1nc2ccc(Cl)cc2nc1O (centres undefined): > 100 µM (inactive)
- CC1=C(C(=O)Nc2ccccc2)C(c2ccc(C3C(C(=O)Nc4ccccc4)=C(C)NC(C)=C3C(=O)Nc3ccccc3)cc2)C(C(=O)Nc2ccccc2)=C(C)N1: 1.61 µM (inactive)
- Cc1ccc(-c2n[nH]c(=O)[nH]2)cc1[N+](=O)[O-]: > 100 µM (inactive)
- O=C(OC1C#CCSCC#C/C=C\1)c1cnc2ccccc2n1 (centres undefined): > 100 µM (inactive)
- CCOC(=O)c1ccc(C(=O)/C(C(=O)OC(C)(C)C)=C2\CCCN2C)n1C: 87.3 µM (inactive)
- Cn1cc2ccccc2c1-c1nc(F)nc(F)n1: > 100 µM (inactive)
- CCCN1C(=O)/C(=C(/O)C(=O)OCC)C(c2ccc(OC)c(OC)c2)C1=O (centres undefined): > 100 µM (inactive)
- CC[C@@H]1CC[C@@H]2[C@H](CC[C@]3(C)[C@@H](OS(=O)(=O)c4ccc(C)cc4)CC[C@@H]23)[C@H]1COS(=O)(=O)c1ccc(C)cc1: > 100 µM (inactive)
- C=C1C(=O)OC2/C=C(\COC(C)=O)CCC(OC(C)=O)C3=CC(OC3=O)C12 (centres undefined): 5.45 µM (inactive)

----------
Tested on: MCF7
Protocol Notes: NCI tumour cell line growth inhibition, 48 h
The source made the active and inactive calls. No stated cut-off is given here; in the data, active = GI50 up to about 1.1 µM and inactive = higher.
Possible outcomes: active, inactive

- COc1ccc2cc1Oc1ccc(cc1)CC1c3cc(OC)c(cc3CCN1C)Oc1c(OC)c(OC)cc3c1C(C2)N(C)CC3 (stereo not drawn): inactive
- C=C[C@@]1(O)CCCC[C@@H]1CC(Sc1ccccc1)Sc1ccccc1: inactive
- CC1OC(OC2C(O[C@H]3CC[C@@]4(C)[C@@H](CC[C@@H]5[C@@H]4CC[C@]4(C)[C@@H]6[C@H](C[C@@H]54)O[C@]4(CC[C@@H](C)CO4)[C@H]6C)C3)OC(CO)C(OC3OC(CO)C(O)C(OC4OCC(O)C(O)C4O)C3OC3OCC(O)C(O)C3O)C2O)C(O)C(O)C1O (stereo partly drawn): active
- CC1CCCC(C(O)CC2CC(=O)NC(=O)C2)C1O (stereo not drawn): inactive
- O=c1[nH]c(=O)n(C2OC(CO)C(O)C(O)C2O)cc1F (stereo not drawn): inactive
- CC(C)(Cl)C(Br)CCC(C)(Cl)C(Br)CBr (stereo not drawn): inactive
- Cc1ccc(-c2n[nH]c(=O)[nH]2)cc1[N+](=O)[O-]: inactive
- O=C1/C(=C/c2ccc(O)cc2)CCc2ccc([N+](=O)[O-])cc21: inactive

----------
Test system: SK-MEL-5
Protocol Notes: NCI tumour cell line growth inhibition, 48 h
Activity calls are given as the source filed them. Cut-off read from the data, not from the text of the source: active = GI50 up to about 1.1 µM and inactive = higher.
Outcomes: true (1) (active), false (0) (inactive)

- COc1ccc(/N=N/C(C(=O)c2ccccc2)C(=O)c2ccccc2)cc1: false (0)
- COC(=O)c1cc2c(n1S(=O)(=O)c1ccc(C)cc1)C(=O)C(=O)c1[nH]cc(C(=O)OCc3ccccc3)c1-2: true (1)
- O=[N+]([O-])c1cc(Cc2cc([N+](=O)[O-])c3cccnc3c2O)c(O)c2ncccc12: false (0)
- CCOC(=O)NC(=S)NN(C)C1=NCC(C)(C)S1: false (0)
- CN(C)C=C1C(Cl)=C(C=O)CC(C=O)=C1Cl: false (0)
- B.CC(=O)OC1CN2CCC1CC2 (configuration not stated): false (0)
- [O-][n+]1ccc(NO)c2ccccc21: false (0)
